Protein target, amino acids: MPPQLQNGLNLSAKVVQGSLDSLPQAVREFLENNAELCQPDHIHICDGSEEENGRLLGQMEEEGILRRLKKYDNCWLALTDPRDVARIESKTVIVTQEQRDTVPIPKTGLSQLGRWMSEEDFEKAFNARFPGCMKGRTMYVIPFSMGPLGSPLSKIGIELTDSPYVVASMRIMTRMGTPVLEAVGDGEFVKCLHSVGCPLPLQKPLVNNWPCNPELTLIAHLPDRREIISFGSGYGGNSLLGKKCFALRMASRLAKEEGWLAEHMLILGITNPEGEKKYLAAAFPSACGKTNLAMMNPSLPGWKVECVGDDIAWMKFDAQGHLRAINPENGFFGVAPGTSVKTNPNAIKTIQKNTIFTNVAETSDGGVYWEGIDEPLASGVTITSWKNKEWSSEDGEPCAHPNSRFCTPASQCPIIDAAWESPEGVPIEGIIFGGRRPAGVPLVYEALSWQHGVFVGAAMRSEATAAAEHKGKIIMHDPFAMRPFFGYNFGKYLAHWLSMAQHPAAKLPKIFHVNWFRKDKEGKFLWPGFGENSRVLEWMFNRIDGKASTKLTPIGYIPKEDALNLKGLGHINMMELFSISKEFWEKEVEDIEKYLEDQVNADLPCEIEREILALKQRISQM
pIC50: −log10 of the molar value.
assay-endpoint: pIC50

>  <record-smiles>
O=C(Nc1ccc(Cc2nc3c([nH]2)c(=O)n(Cc2ccccc2F)c(=O)n3CC2CC2)cc1)C(F)(F)F

>  <pIC50>
5.74

$$$$
>  <record-smiles>
CCCCn1c(=O)n(Cc2ccccc2F)c(=O)c2[nH]c(Cc3ccc(NC(=O)C(F)(F)F)cc3)nc21

>  <pIC50>
5.64

$$$$

(a) CC(=O)Nc1ccc(Cc2nc3c([nH]2)c(=O)n(Cc2ccccc2F)c(=O)n3CC2CC2)cc1
(b) Cc1nn(C)cc1S(=O)(=O)Nc1ccc(Cc2nc3c([nH]2)c(=O)n(Cc2ccccc2F)c(=O)n3CC2CC2)cc1
Task item: Hi, I'm comparing a with b and wondering which one has the bigger number for pIC50. Any idea? Pick one; state its label.
Reply: b
(b: 6.62, a: 6.16)

###

system-under-test: Phosphoenolpyruvate carboxykinase, cytosolic [GTP] (Rattus norvegicus, UniProt P07379)
assay-comment: Inhibition of cPEPCK in rat H4IIE cells assessed as effect on glucose production
pEC50: −log10 of the molar value.
assay-endpoint: pEC50

(P) CC(=O)Nc1ccc(Cc2nc3c([nH]2)c(=O)n(Cc2ccccc2F)c(=O)n3CC2CC2)cc1
(Q) Cc1nc(N)sc1S(=O)(=O)Nc1ccc(Cc2nc3c([nH]2)c(=O)n(Cc2ccccc2F)c(=O)n3CC2CC2)cc1
(R) Cc1nn(C)c(Cl)c1S(=O)(=O)Nc1ccc(Cc2nc3c([nH]2)c(=O)n(Cc2ccccc2F)c(=O)n3CC2CC2)cc1
Task item: Order the entries above by descending pEC50. Answer format: the labels, in the requested order.
Reply: R, P, Q

###

system-under-test: Phosphoenolpyruvate carboxykinase, cytosolic [GTP] (Rattus norvegicus)
Sequence (P07379 whole entry): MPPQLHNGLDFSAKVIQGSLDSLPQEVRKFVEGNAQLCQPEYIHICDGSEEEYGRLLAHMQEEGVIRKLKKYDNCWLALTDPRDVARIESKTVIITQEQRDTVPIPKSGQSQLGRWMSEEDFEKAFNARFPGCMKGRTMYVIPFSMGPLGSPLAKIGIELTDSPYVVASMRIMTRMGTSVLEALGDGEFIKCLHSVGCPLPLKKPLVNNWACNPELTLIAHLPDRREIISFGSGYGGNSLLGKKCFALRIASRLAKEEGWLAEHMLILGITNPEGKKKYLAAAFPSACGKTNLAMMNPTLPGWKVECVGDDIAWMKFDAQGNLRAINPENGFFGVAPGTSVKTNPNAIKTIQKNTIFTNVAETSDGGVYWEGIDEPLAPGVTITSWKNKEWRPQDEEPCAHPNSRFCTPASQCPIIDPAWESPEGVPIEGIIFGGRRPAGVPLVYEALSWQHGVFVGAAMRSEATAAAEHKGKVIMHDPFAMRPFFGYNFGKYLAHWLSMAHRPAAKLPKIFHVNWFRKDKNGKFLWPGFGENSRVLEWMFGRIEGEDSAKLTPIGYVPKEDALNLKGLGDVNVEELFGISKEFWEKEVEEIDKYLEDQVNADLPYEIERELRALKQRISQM
assay-comment: Inhibition of cPEPCK in rat H4IIE cells assessed as effect on glucose production
assay-endpoint: EC50 (µM)

>  <record-smiles>
Cn1cc(S(=O)(=O)Nc2ccc(Cc3nc4c([nH]3)c(=O)n(Cc3ccccc3F)c(=O)n4CC3CC3)cc2)cn1

>  <assay-endpoint>
EC50

>  <endpoint-value>
8.75

$$$$
>  <record-smiles>
O=c1c2[nH]c(Cc3ccc(NS(=O)(=O)c4cccnc4)cc3)nc2n(CC2CC2)c(=O)n1Cc1ccccc1F

>  <assay-endpoint>
EC50

>  <endpoint-value>
5.5

$$$$
>  <record-smiles>
CCCCn1c(=O)n(Cc2ccccc2F)c(=O)c2[nH]c(Cc3ccc(NC(C)=O)cc3)nc21

>  <assay-endpoint>
EC50

>  <endpoint-value>
8.6

$$$$
>  <record-smiles>
CCCCn1c(=O)n(Cc2ccccc2F)c(=O)c2[nH]c(Cc3ccc(NS(=O)(=O)c4c(C)nn(C)c4Cl)cc3)nc21

>  <assay-endpoint>
EC50

>  <endpoint-value>
3.97

$$$$

(1) Cc1nn(C)cc1S(=O)(=O)Nc1ccc(Cc2nc3c([nH]2)c(=O)n(Cc2ccccc2F)c(=O)n3CC2CC2)cc1
(2) Cc1noc(C)c1S(=O)(=O)Nc1ccc(Cc2nc3c([nH]2)c(=O)n(Cc2ccccc2F)c(=O)n3CC2CC2)cc1
Task item: Hi, I'm comparing 1 with 2 and wondering which one has the bigger number for EC50. Any idea? Pick one; state its label.
Reply: 1

Origin of values: ChEMBL document CHEMBL1145376
